Field: growth. Provide a value for each of the compounds that follow.
tested on: SK-OV-3 ovarian; assay: NCI-60 one-dose screen, 48 h (100 = growth as untreated, 0 = no growth, -100 = all killed); conditions: 10 µM unless noted
Compounds without any hit were thinned out: in the full panel of roughly 83,000, 20% have a hit.
Numbers only, in %.

Using known records, supply growth for `O=C(Nc1ccc(N2CCCCC2)c(Cl)c1)c1ccc(Br)o1`
107

List reported growth for each of these compounds:
1. COc1ccc(Oc2nc(Nc3ccc(N4CCOCC4)nc3)ncc2NC(=O)c2cc(OC)cc(OC)c2)cc1
2. CN(C)c1ccc2cc(-c3ccc(Cl)c(Cl)c3)c(N)nc2c1
3. CNC(=O)c1cc(Oc2ccc3nc(NC(=O)Nc4cc(C(F)(F)F)cc(C(F)(F)F)c4)sc3c2)ccn1
4. Cc1nn(Cc2ccccc2)cc1C(=O)Nc1sc2c(c1C(N)=O)CCC(=O)C2

1. 88.6
2. 60.4
3. -58
4. 116

Each compound below has a recorded value; state its growth.
1. O=C1CSC(c2ccccc2Cl)N1c1nnc(Cn2cnnc2)o1 (stereo not drawn)
2. COc1ccc(-n2nnc(C(=O)NCCc3c[nH]c4ccc(F)cc34)c2C)cc1
3. COc1ccc(-c2c(N)n[nH]c2-c2ccccc2O)cc1OC
4. COc1cccc(CCC2CCCN(c3cc(C)nc(N)n3)C2)c1 (stereo not drawn)
5. CCO/C=N/C1=C(C#N)C(c2ccc(OC)cc2)c2c(c3ccccc3n(C)c2=O)O1 (stereo not drawn)
6. O=C(Nc1cccc2[nH]c(C(F)(F)F)nc12)c1cc(Cl)ccc1Cl
7. OCCCCc1nccc2c1[nH]c1ccccc12

[49, 89.8, 84.1, 40.5, 99.9, 47.9, 112]

List reported growth for each of these compounds:
1. N#Cc1c(N)nc2c(nnn2-c2cccc(Br)c2)c1N
2. C/C(Cc1ccc(Cl)cc1)=C(/c1ccc(Cl)cc1)c1ccc(OCCN(C)C)cc1

1: 101; 2: 110

Please give growth, item by item, for the list that follows.
1. CS(=O)(=O)c1ccc(-c2[nH]c3ccc(F)cc3c2/C=N/O)cc1
2. CC(C)OCCCNCC(=O)Nc1ccc(S(=O)(=O)c2ccc(NC(=O)CNCCCOC(C)C)cc2)cc1
3. O=C1CSC(c2ccccc2O)N1c1nnc(Cn2cnnc2)o1 (stereo not drawn)
4. CCCCC1COc2cccc3c(SCC(=O)N(C)c4cccc(Cl)c4)cc[n+]1c23 (stereo not drawn)

1: 69.8; 2: 111; 3: 88.3; 4: 108

Give growth for each listed item.
1. COc1cc(/C=C/C(=O)c2cccc(-n3cc(-c4ccc(Cl)cc4)[nH]c3=O)c2)cc(OC)c1OC
2. CC(C)(C)OC(=O)N1Cc2cc3ccccc3nc2C1CO (stereo not drawn)
3. Cc1cc(N2CCCCC2)nc(N(CCNc2ccnc3cc(Cl)ccc23)Cc2ccccn2)n1
4. CCCCCCCCc1cc[n+](CC(=O)c2ccc(Br)cc2)cc1
5. CCOC(=O)c1c(C)nc2c(c1N)/C(=C/c1cc(OC)c(OC)c(OC)c1)C(=O)N2c1ccc(OC)cc1

[84.8, 119, 60.5, 22, 105]

I need growth for every entry listed below, if you could help.
1. C=C(C)[C@@H]1CC[C@@]2(C(=O)O)CC[C@]3(C)C(CCC4[C@@]5(C)CCC(OS(=O)(=O)c6ccccc6)C(C)(C)C5CC[C@]43C)C12 (stereo partly drawn)
2. COc1ccc(/C(C)=C(\c2ccc(Cl)cc2)c2ccc(OCCCN(C)C)cc2)cc1F
3. CO[C@H]1/C=C/O[C@@]2(C)Oc3c(C)c(O)c4c(c3C2=O)C(=O)C(/C=N/N(c2ccccc2)c2ccccc2)=C(NC(=O)/C(C)=C\C=C\[C@H](C)[C@H](O)[C@@H](C)[C@@H](O)[C@@H](C)[C@H](OC(C)=O)[C@@H]1C)C4=O
4. C=C(C)[C@@H]1CC[C@]2(CN)CC[C@]3(C)[C@H](CC[C@@H]4[C@@]5(C)CCC(N)[C@@](C)(CO)[C@@H]5CC[C@]43C)[C@@H]12 (stereo partly drawn)
5. N#Cc1cnn2c(-c3ccc(Cl)cc3)nc(NC3CC3)nc12
6. O=C(NCc1cn(Cc2cccc(Oc3ccccc3)c2)nn1)c1cccnc1NCc1ccc(Cl)cc1

[74.4, 81.9, 12.2, -80.5, 107, 21.4]

// input: 8 compounds below; output: growth for each
1. CN1CCN(CCCOc2ccc3nc(Nc4cc(Cl)cc(Cl)c4)ccc3c2)CC1
2. O=[N+]([O-])c1ccc(-c2cc3c(Nc4ccc(Sc5nc6ccccc6s5)c(Cl)c4)ncnc3s2)cc1
3. CNC(=O)c1c(NC(=O)c2ccc(C(C)(C)C)cc2)sc2c1CCC(=O)C2
4. C[C@@H](C[C@H](CCOCc1cccnc1)c1ccccc1)c1cc2ccccc2o1
5. CCOC(=O)c1c(C)[nH]c(C(=O)CCC(=O)OC)c1C
6. O=C1NN(C(=O)c2ccc(O)cc2)C(c2ccccc2)=N/C1=C\c1cn(-c2ccccc2)nc1-c1ccccc1
7. CCN(CC)CCCNC(=O)c1ccc(N)cc1
8. Nc1ccc(S(=O)(=O)Nc2ccsc2-c2nc(-c3ccccc3)no2)cc1

1: -59; 2: 37.1; 3: 0.618; 4: 84.7; 5: 101; 6: 92.6; 7: 112; 8: 62.3

Give me measured growth, please, for this compound: `COc1ccc(-c2cc(-c3cc(OC)ccc3O)[nH]c(=O)c2C#N)cc1`
63.5
